test system: MOLT-4; experiment: Anticancer activity against human MOLT4 cells assessed as cell growth promotion at 10^-5 M after 48 hrs by SRB assay relative to control; format: functional
Measured Activity by item
Reply with just the number (in %).

Use the examples below as a reference point.
molecule-smiles	Activity (%)
C(=C\c1nc2ccccc2nc1SCc1nc2ccccc2[nH]1)/c1ccccc1	63.07
O=c1c2ccccc2nc(-c2ccco2)n1O	101.31
O=C(O)c1ccc(-n2c(-c3ccco3)nc3ccccc3c2=O)cc1	91.05
N#Cc1ccc(/C=C/c2nc3ccccc3nc2SCc2nc3ccccc3[nH]2)cc1	88.59

Record request: Activity value, item `NS(=O)(=O)c1ccc(NC(=O)c2ccccc2NC(=O)c2ccco2)cc1` 87.33

Record request: Activity value, item `Oc1ccc(/C=C/c2nc3ccccc3nc2SCc2nc3ccccc3[nH]2)cc1` 75.47

Record request: Activity value, item `O=C(Nc1ccccc1C(=O)Nc1ccc(/C=C/c2ccc(Cl)cc2)cc1)c1ccco1` 100

Record request: Activity value, item `Brc1cccc(/C=C/c2nc3ccccc3nc2SCc2nc3ccccc3[nH]2)c1` 84.4

Record request: Activity value, item `CN(C)c1ccc(/C=C/c2nc3ccccc3nc2SCc2nc3ccccc3[nH]2)cc1` 84.64

Record request: Activity value, item `COc1ccc(OC)c(/C=C/c2nc3ccccc3nc2SCc2nc3ccccc3[nH]2)c1` 69.92

====

tested on: HOP-62; assay: Anticancer activity against human HOP62 cells assessed as cell growth promotion at 10^-5 M after 48 hrs by SRB assay relative to control; type: functional
endpoint-label: Activity (%)
Reply with just the number (in %).

Use the examples below as a reference point.
molecule-smiles	endpoint-label	reported-measurement
COc1cc(/C=C/c2ccc(NC(=O)c3ccccc3NC(=O)c3ccccc3)cc2)ccc1O	Activity	94.69
O=C(Nc1ccccc1C(=O)Nc1ccc(/C=C/c2ccc(O)cc2)cc1)c1ccccc1	Activity	95.55
Oc1ccc(/C=C/c2nc3ccccc3nc2SCc2nc3ccccc3[nH]2)cc1	Activity	101
O=C(Nc1ccccc1C(=O)Nc1ccc(/C=C/c2ccc(Cl)cc2)cc1)c1ccccc1	Activity	105
O=C(Nc1ccccc1C(=O)Nc1ccc(/C=C/C=C/c2ccccc2)cc1)c1ccccc1	Activity	93.96
O=c1c2ccccc2nc(-c2ccco2)n1O	Activity	112.74
NS(=O)(=O)c1ccc(NC(=O)c2ccccc2NC(=O)c2ccco2)cc1	Activity	106
N#Cc1ccc(/C=C/c2nc3ccccc3nc2SCc2nc3ccccc3[nH]2)cc1	Activity	99.49
C(=C\c1nc2ccccc2nc1SCc1nc2ccccc2[nH]1)/c1ccccc1	Activity	88.3
CN(C)c1ccc(/C=C/c2nc3ccccc3nc2SCc2nc3ccccc3[nH]2)cc1	Activity	100

Consider now this further compound.
Entry `O=C(Nc1ccccc1C(=O)Nc1ccc(/C=C/c2ccc(Cl)cc2)cc1)c1ccco1` , system HOP-62: what Activity was measured? 104

The origin of these recorded values is ChEMBL document CHEMBL1781959.
